Collected from the literature: IC50 of various molecules toward RORc (Homo sapiens).
QUANTITY_NAME: IC50 (nM)

• CC(C)CN(c1ccccc1C(F)(F)F)S(=O)(=O)c1ccc(NC2CCN(S(C)(=O)=O)CC2)cc1 = 33
• CC1(C)[C@H]2CC[C@]1([C@H]1CCCN(C(=O)c3c[nH]c(=O)cn3)C1)c1nnc(-c3c(F)cccc3F)cc12 = 11
• CC(C)CN(Cc1ccc(-c2cccc(C(N)=O)c2)s1)S(=O)(=O)Cc1ccccc1 = 1400
• CC(C)OC[C@]12CC[C@H](c3cc(-c4ccccc4F)nnc31)C2(C)C = 281

* * *

Published pIC50 for UniProtKB P51449, assembled from different documents, is shown next.
pIC50: −log10 of the molar value.
Label scheme for pIC50: lower than 6 is Not met, 6 and above is Met.

* COC[C@@H]1CCCN1C(=O)[C@]12CC[C@H](c3cc(-c4c(F)cccc4F)nnc31)C2(C)C | Not met
* CC(C)CN(c1cccc(Cl)c1)S(=O)(=O)c1ccc(-c2ccc(C(N)=O)cc2)cc1 | Met
* CC1(C)[C@H]2CC[C@]1(c1cncc(-c3nc(CC(N)=O)co3)n1)c1nnc(-c3c(F)cccc3F)cc12 | Met
* C[C@H]1CC[C@H](c2ccccc2)S(=O)(=O)N1Cc1ccc(C2(NC(=O)CO)CCOCC2)cc1F | Met
* CC1(C)[C@H]2CC[C@]1(c1c(Br)cnc(C#N)c1F)c1nnc(-c3c(F)cccc3F)cc12 | Met
* C[C@H]1CCC(c2ccccc2)S(=O)(=O)N1Cc1ccc(-c2ccc3nncn3c2)cc1F (stereo partly shown) | Met
